The reported numbers originate from patent US6410585B1.

# Measurement Target: rat PTP1 (Rattus norvegicus)
# Construct: a C-terminal truncation of rat PTP1 (amino acid residues 1-322); GST (N, cleaved yes); made in house; host or cells: E. coli strain TG-1 (pGEX-2T)
# Sequence (P20417 1-322): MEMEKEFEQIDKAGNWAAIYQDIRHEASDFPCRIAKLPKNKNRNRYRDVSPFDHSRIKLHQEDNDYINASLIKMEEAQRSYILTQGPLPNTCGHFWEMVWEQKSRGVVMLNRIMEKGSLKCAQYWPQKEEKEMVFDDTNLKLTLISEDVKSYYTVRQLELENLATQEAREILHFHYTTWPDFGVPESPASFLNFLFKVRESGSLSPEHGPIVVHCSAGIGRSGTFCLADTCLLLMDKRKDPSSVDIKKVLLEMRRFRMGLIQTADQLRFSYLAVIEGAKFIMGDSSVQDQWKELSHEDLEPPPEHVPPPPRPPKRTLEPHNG
# Assay Protocol: PTP1 assay, pNPP hydrolysis (rate of change in A405)
# Type: biochemical
# Test Settings: Conc 10 uM; pNPP hydrolysis; Table 2; read-out: PTP1 Inhib PTP1N. % Inhib
Decision: inhibition at 10 µM >= 50% yields y, all other cases yield n.

{"Molecule": "O=C(O)CCC(=O)NC(Cc1ccc(C(=O)c2ccccc2)cc1)C(=O)NCCc1ccc(OC(COO)COO)cc1 (stereo not drawn)", "Measurement Target": "rat PTP1 (Rattus norvegicus)", "Category Label": "n"}
{"Molecule": "CCCCCNC(=O)C(Cc1ccc(OC(COO)COO)cc1)NC(=O)C(Cc1ccccc1)NC(=O)CCC(=O)O (stereo not drawn)", "Measurement Target": "rat PTP1 (Rattus norvegicus)", "Category Label": "y"}
{"Molecule": "CCCCCNC(=O)C(C)(Cc1ccc(OC(C(=O)O)C(=O)O)cc1)NC(=O)CCC(=O)O (stereo not drawn)", "Measurement Target": "rat PTP1 (Rattus norvegicus)", "Category Label": "n"}
{"Molecule": "CCCCCNC(=O)C(Cc1ccc(OC(COO)COO)cc1)NC(=O)[C@H](Cc1ccc(C(=O)c2ccccc2)cc1)NC(C)=O (stereo partly drawn)", "Measurement Target": "rat PTP1 (Rattus norvegicus)", "Category Label": "n"}
{"Molecule": "CCCCC/C=C/[C@H](Cc1ccc(OC(C(=O)O)C(=O)O)cc1)NC(=O)CCC(=O)O", "Measurement Target": "rat PTP1 (Rattus norvegicus)", "Category Label": "n"}

Turning now to a further record.
Ask: Check the entry CCCCCNC(=O)C(Cc1ccc(OCCOO)c(COO)c1)NC(=O)C(Cc1ccccc1)NC(=O)OC(C)(C)C (stereo not drawn) [drawing 162] : does inhibition at 10 µM equal or exceed 50%?
Reply: y
